Molecular target: ligand binding domain of human RORγ (Homo sapiens, UniProt P51449)
Construct: host or cells: HEK293t
Test: RORγ Reporter Assay (Gal4)
Assay type: cell-based
Settings: RORγ Reporter Assay (Gal4), HEK293t reporter cells, compound at 0.1 μM; values are activity range bounds
Description: The activity of the compounds was evaluated using a Fluorescence Polarization (FP) Assay and, RORγ Reporter assay (also referred to as Gal4 assay). The FP assay is an in vitro assay monitoring binding within the ligand binding pocket. The RORγ and the Th17 assays (another suitable assay) are both cell-based assays monitoring functional activity of the compound assayed. RORγ Reporter Assay (Gal4) […]
Property name: Gal4 activity range @ 0.1 μM (% inhibition)

# annotated cases, reported Gal4 activity range @ 0.1 μM (% inhibition) shown
- O=S(=O)(Nc1ccc(CNc2ncnc(N(Cc3ccc(C(F)(F)F)cc3)C3CC3)c2F)cc1)C(F)(F)F: >0 % inhibition
- NC(=O)Cc1ccc(CNc2ncnc(N(Cc3ccc(C(F)(F)F)cc3)C3CCC3)c2F)cc1: >20 % inhibition
- CCOc1ccc(CN(c2ncnc(NCc3ccc(CC(N)=O)cc3)c2F)C2CC2)cc1: >50 % inhibition
- CC(c1ccc(C(F)(F)F)nc1)N(c1ncnc(NCc2ccc(CC(N)=O)cc2)c1F)C1CC1 (centres unmarked): >0 % inhibition
- CC(c1ccc(C(F)(F)F)cc1)N(c1ncnc(NCc2ccc(NS(=O)(=O)C(F)(F)F)cc2)c1F)C1CC1 (centres unmarked): >0 % inhibition
- NC(=O)CC1CC(CNc2ncnc(N(Cc3ccc(C(F)(F)F)cc3)C3CC3)c2F)C1 (centres unmarked): >20 % inhibition
- OC1(CNc2ncnc(N(Cc3ccc(C(F)(F)F)cc3)C3CC3)c2F)CCOC1 (centres unmarked): >20 % inhibition

Looking up `NC(=O)Cc1ccc(CNc2ncnc(N(Cc3c(Cl)cccc3Cl)C3CC3)c2F)cc1` , I found its Gal4 activity range @ 0.1 μM (% inhibition) recorded as >20 % inhibition

###

Each entry below carries its recorded pIC50.
Biological target: human RORγt (Ligand Binding Domain) (Homo sapiens)
Sequence (P51449 269-508 limits assumed): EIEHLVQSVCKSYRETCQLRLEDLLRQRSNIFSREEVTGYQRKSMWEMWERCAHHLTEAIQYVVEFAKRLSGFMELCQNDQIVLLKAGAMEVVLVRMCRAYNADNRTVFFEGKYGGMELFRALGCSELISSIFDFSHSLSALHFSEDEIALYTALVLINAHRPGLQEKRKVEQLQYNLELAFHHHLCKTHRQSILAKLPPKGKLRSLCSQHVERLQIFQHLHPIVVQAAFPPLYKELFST
pIC50: −log10 of the molar value.

Examples with their reported pIC50 follow.
- NC(=O)CC1CC(CNc2ncnc(N(Cc3ccc(C(F)(F)F)cc3)C3CC3)c2F)C1 (stereo not drawn) [Example A95]: > 6.00
- CS(=O)(=O)N1CC(CNc2ncnc(N(Cc3ccc(C(F)(F)F)cc3)C3CC3)c2F)C1 [Example A160]: > 6.30
- CC(c1ccc(C(F)(F)F)cc1)N(c1ncnc(NCc2ccc(NS(=O)(=O)C(F)(F)F)cc2)c1F)C1CC1 (stereo not drawn) [Example A74]: > 6.30
- NC(=O)Cc1ccc(CNc2ncnc(N(Cc3cc(C(F)(F)F)ccn3)C3CC3)c2F)cc1 [Example A178]: > 6.30
- CS(=O)(=O)CC1(CNc2ncnc(N(Cc3ccc(C(F)(F)F)cc3)C3CC3)c2F)CCOCC1 [Example A31]: > 6.30
- CS(=O)(=O)N1CCC(CNc2ncnc(N(Cc3ccc(C(F)(F)F)cn3)C3CC3)c2F)C1 (stereo not drawn) [Example A166]: > 5.00

Record CS(=O)(=O)N1CCC(CNc2ncnc(N(Cc3ccc(C(F)(F)F)cc3)C3CC3)c2F)C1 (stereo not drawn) [Example A158] / human RORγt (Ligand Binding Domain) (Homo sapiens), pIC50 recorded as > 6.30

Item: Fc1c(NCC2CCCS2)ncnc1N(Cc1ccc(C(F)(F)F)cc1)C1CC1 (stereo not drawn) [Example A28] | System: human RORγt (Ligand Binding Domain) (Homo sapiens) | pIC50: > 6.00

Item: CS(=O)(=O)N1[C@@H]2CC[C@H]1CC(CNc1ncnc(N(Cc3ccc(C(F)(F)F)cc3)C3CC3)c1F)C2 (stereo partly drawn) [Example A171] | System: human RORγt (Ligand Binding Domain) (Homo sapiens) | pIC50: > 6.30

All values here come from patent US10683293B2.
